B1: PhoQ; a variant is named by its letters at X, in order, P23837 (parent)
chain: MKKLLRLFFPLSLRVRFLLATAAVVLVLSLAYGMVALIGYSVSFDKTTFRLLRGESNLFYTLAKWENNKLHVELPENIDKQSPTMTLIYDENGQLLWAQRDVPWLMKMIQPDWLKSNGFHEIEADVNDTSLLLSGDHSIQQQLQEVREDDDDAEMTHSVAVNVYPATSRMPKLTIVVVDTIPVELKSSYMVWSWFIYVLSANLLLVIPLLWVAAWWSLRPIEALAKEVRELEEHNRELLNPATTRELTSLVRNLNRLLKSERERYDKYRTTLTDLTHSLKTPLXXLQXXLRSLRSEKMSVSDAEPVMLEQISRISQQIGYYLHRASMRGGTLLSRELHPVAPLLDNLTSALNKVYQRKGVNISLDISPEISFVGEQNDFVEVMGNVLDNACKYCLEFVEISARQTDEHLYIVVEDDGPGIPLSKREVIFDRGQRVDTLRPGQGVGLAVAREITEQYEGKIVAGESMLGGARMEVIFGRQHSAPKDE

Variants of: B1
Assay Notes: enrichment ratio after two sorts for PhoP signalling (ratio (wild type AVST 3.29)); higher = more functional
Setup Conditions: with PhoP (E. coli)
Whole data set: some 140,000 sequences, median “enrichment ratio after two sorts for PhoP signalling” near 0, cut for the highest 2% near 11. Shown is part of a subset that was picked to be rich in the highest values.
Experimental Readout: enrichment ratio

Take a look at these entries with their results.
[[record]]
mutation_descriptor = "KINA"
endpoint_value = "≤ 0.25"

[[record]]
mutation_descriptor = "DMST"
endpoint_value = "≤ 0.25"

[[record]]
mutation_descriptor = "AVIT"
endpoint_value = 1.3

[[record]]
mutation_descriptor = "HKST"
endpoint_value = "≤ 0.25"

[[record]]
mutation_descriptor = "GMNL"
endpoint_value = "≤ 0.25"


Hi team, please reply with enrichment ratio for each item in this list.
1. SHVG
2. FQIQ
3. RMGP
4. LGQF
5. VYSL

Result:
1: ≤ 0.25; 2: ≤ 0.25; 3: ≤ 0.25; 4: ≤ 0.25; 5: ≤ 0.25

Hi team, please reply with enrichment ratio for each item in this list.
1. VEGG
2. PNFI

Result:
1. ≤ 0.25
2. ≤ 0.25
